Provide the reported TLR9-500 nM: averaged NF-κB-Luciferase relative to ODN2006 of each item.
testSystem: human TLR9 (Homo sapiens, UniProt Q9NR96)
Construct: HA; host or cells: 293XL-hTLR9-HA (HEK293)
Sequence (Q9NR96 26-1032): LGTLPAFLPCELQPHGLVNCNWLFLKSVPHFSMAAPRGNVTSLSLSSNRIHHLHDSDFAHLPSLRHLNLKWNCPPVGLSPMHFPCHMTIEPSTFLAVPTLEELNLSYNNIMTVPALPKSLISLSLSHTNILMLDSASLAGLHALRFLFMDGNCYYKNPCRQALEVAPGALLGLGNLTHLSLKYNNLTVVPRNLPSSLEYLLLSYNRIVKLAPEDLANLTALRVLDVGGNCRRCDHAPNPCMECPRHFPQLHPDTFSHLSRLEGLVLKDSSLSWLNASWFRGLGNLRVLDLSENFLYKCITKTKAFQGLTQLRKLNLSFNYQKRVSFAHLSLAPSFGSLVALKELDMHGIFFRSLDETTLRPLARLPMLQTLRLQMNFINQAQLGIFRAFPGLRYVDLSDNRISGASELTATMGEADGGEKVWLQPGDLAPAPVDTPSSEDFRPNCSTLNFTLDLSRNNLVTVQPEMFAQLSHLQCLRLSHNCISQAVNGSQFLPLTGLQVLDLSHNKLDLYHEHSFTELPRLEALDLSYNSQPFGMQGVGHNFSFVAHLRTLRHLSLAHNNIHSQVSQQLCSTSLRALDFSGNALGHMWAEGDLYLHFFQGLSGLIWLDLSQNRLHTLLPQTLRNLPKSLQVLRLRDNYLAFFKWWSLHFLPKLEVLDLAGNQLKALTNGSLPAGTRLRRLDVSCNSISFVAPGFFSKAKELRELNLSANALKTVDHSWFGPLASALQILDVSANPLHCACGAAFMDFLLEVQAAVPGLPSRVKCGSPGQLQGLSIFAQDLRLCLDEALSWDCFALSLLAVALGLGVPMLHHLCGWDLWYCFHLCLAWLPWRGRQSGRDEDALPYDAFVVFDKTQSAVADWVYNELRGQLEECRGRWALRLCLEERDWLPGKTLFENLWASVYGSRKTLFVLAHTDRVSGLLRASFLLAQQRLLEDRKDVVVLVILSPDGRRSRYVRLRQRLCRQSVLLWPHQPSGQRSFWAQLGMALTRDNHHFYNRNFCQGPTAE
protocolSummary: HEK-TLR9 NF-κB-luciferase reporter, ODN2006 stimulation
Format: cell-based
conditionSet: HEK-TLR9; 500 nM ASO 45 min, then 200 nM ODN2006 overnight; percentage of ODN2006 only
In the oligonucleotide strings, read from the 5' end, every base follows the letter of its sugar. An asterisk marks phosphorothioate; unmarked linkages are phosphodiester. Other units and linkages are bracketed, terminal groups are in braces. A string of capitals states the bases alone. d = 2'-deoxy (DNA); m = 2'-O-methyl
Numbers only here, please. The scale is %.

Prompt: Return TLR9-500 nM: averaged NF-κB-Luciferase relative to ODN2006 measured with human TLR9 (Homo sapiens, UniProt Q9NR96) given this substance: mU*mU*mC*mU*mC*T*C*T*G*G*T*C*C*C*A*mU*mC*mC*mC*mU (mU*mU*mC*mU*mC*dT*dC*dT*dG*dG*dT*dC*dC*dC*dA*mU*mC*mC*mC*mU; antisense) [[LINC-PINT]111]
Completion: 98.01

Prompt: For human TLR9 (Homo sapiens, UniProt Q9NR96), provide TLR9-500 nM: averaged NF-κB-Luciferase relative to ODN2006 of mU*mU*mG*mG*mC*C*T*G*T*G*G*A*T*G*C*mU*mU*mU*mG*mU (mU*mU*mG*mG*mC*dC*dT*dG*dT*dG*dG*dA*dT*dG*dC*mU*mU*mU*mG*mU) [[LINC-PINT]2673.1] please.
Completion: 40.71

Prompt: Fill in the recorded TLR9-500 nM: averaged NF-κB-Luciferase relative to ODN2006 for this substance, with human TLR9 (Homo sapiens, UniProt Q9NR96) as test system: mA*mA*mA*mA*mU*A*A*G*G*G*G*A*A*T*A*mG*mG*mG*mG*mA (mA*mA*mA*mA*mU*dA*dA*dG*dG*dG*dG*dA*dA*dT*dA*mG*mG*mG*mG*mA; antisense) [[CDKN2B-AS1]79]
Completion: 67.44

Prompt: Enter reported TLR9-500 nM: averaged NF-κB-Luciferase relative to ODN2006 observed with human TLR9 (Homo sapiens, UniProt Q9NR96) for mC*mC*mC*mU*mU*C*T*C*T*C*T*G*G*T*C*mC*mC*mA*mU*mC (mC*mC*mC*mU*mU*dC*dT*dC*dT*dC*dT*dG*dG*dT*dC*mC*mC*mA*mU*mC; antisense) [[LINC-PINT]114]
Completion: 62.09

Prompt: Recall the recorded TLR9-500 nM: averaged NF-κB-Luciferase relative to ODN2006 for mC*mC*mC*mU*mA*A*T*G*C*T*T*T*C*C*T*mC*mU*mC*mC*mA (mC*mC*mC*mU*mA*dA*dT*dG*dC*dT*dT*dT*dC*dC*dT*mC*mU*mC*mC*mA; antisense) [[LINC-PINT1877 KL] with human TLR9 (Homo sapiens, UniProt Q9NR96) and state it.
Completion: 86.47

###

testSystem: TLR8 (Homo sapiens, UniProt Q9NR97)
Sequence (Q9NR97 27-1041): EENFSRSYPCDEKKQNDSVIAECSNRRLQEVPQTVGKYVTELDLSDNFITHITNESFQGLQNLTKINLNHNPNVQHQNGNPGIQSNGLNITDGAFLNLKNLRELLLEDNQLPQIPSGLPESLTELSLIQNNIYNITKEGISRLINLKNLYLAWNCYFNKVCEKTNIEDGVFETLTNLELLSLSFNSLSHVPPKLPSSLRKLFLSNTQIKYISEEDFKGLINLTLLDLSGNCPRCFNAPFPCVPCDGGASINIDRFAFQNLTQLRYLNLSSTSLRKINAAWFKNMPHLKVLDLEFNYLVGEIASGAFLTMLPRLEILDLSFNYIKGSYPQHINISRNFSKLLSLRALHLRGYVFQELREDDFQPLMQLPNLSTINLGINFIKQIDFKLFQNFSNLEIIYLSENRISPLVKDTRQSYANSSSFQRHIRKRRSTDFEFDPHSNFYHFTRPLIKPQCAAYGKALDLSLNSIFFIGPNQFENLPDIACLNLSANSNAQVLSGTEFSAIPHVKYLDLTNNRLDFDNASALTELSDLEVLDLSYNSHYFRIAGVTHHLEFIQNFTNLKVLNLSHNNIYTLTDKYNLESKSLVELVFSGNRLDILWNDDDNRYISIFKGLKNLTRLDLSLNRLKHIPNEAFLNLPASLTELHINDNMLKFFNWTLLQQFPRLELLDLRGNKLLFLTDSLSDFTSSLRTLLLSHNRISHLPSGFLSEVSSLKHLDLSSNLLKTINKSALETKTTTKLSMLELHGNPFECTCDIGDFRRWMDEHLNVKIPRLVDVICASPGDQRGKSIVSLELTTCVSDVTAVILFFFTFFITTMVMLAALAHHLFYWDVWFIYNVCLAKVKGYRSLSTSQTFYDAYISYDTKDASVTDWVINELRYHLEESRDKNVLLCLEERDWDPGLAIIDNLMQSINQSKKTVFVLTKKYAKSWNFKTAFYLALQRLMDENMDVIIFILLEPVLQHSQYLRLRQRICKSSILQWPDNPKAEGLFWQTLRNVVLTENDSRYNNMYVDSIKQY
protocolSummary: HEK-TLR8 NF-κB-luciferase reporter, R848 or Motolimod stimulation (potentiation or inhibition)
Assay type: cell-based
Set-up: expressed in transfected cells; host or cells: 293XLhTLR8 (HEK293)
conditionSet: HEK-TLR8; 500 nM ASO; fold increase relative to R848 without ASO (Alharbi et al., 2020)
In the oligonucleotide strings, read from the 5' end, every base follows the letter of its sugar. An asterisk marks phosphorothioate; unmarked linkages are phosphodiester. Other units and linkages are bracketed, terminal groups are in braces. A string of capitals states the bases alone. d = 2'-deoxy (DNA); m = 2'-O-methyl
measuredQuantity: TLR8-500 nM: averaged NF-κB-Luciferase relative to R848 (fold)
Number in fold, nothing else.

Prompt: TLR8-500 nM: averaged NF-κB-Luciferase relative to R848 lookup needed for mG*mC*mA*mA*mG*G*C*A*G*A*G*A*A*A*C*mU*mC*mC*mA*mG (GCAAGGCAGAGAAACUCCAG; sugars from the 5' end m5 d10 m5, all phosphorothioate, methylation of C not given here) [[LINC-PINT]1315 KL] , thanks.
Completion: 2.69

Prompt: # lookup: TLR8-500 nM: averaged NF-κB-Luciferase relative to R848 of mC*mU*mU*mU*mA*T*A*T*T*A*C*A*A*A*G*mC*mU*mA*mC*mU (mC*mU*mU*mU*mA*dT*dA*dT*dT*dA*dC*dA*dA*dA*dG*mC*mU*mA*mC*mU; antisense) [[LINC-PINT]2755]
Completion: 6.37

Prompt: Please give the measured TLR8-500 nM: averaged NF-κB-Luciferase relative to R848 for this substance: mA*mA*mG*mA*mU*T*A*T*C*T*T*C*T*T*T*mU*mA*mA*mU*mU (mA*mA*mG*mA*mU*dT*dA*dT*dC*dT*dT*dC*dT*dT*dT*mU*mA*mA*mU*mU) [[CDKN2B-AS1]2131]
Completion: 5.62

Prompt: Entry under review: mG*mG*mU*mC*mC*C*A*T*C*C*C*T*T*C*T*mG*mC*mU*mG*mC (GGUCCCATCCCTTCTGCUGC; sugars from the 5' end m5 d10 m5, all phosphorothioate, methylation of C not given here) [[LINC-PINT]103] . Reported TLR8-500 nM: averaged NF-κB-Luciferase relative to R848?
Completion: 1.87

Prompt: Could you share which TLR8-500 nM: averaged NF-κB-Luciferase relative to R848 value was measured for mU*mU*mC*mU*mC*T*C*T*G*G*T*C*C*C*A*mU*mC*mC*mC*mU (mU*mU*mC*mU*mC*dT*dC*dT*dG*dG*dT*dC*dC*dC*dA*mU*mC*mC*mC*mU; antisense) [[LINC-PINT]111] ?
Completion: 9.51

###

For each of the sequences below, state its TLR7 100 nM (averaged NF-κB-Luciferase level relative to R848 condition).
testSystem: human TLR7 (Homo sapiens, UniProt Q9NYK1)
Construct: HA; host or cells: 293XL-hTLR7-HA (HEK293)
Sequence (Q9NYK1 27-1049): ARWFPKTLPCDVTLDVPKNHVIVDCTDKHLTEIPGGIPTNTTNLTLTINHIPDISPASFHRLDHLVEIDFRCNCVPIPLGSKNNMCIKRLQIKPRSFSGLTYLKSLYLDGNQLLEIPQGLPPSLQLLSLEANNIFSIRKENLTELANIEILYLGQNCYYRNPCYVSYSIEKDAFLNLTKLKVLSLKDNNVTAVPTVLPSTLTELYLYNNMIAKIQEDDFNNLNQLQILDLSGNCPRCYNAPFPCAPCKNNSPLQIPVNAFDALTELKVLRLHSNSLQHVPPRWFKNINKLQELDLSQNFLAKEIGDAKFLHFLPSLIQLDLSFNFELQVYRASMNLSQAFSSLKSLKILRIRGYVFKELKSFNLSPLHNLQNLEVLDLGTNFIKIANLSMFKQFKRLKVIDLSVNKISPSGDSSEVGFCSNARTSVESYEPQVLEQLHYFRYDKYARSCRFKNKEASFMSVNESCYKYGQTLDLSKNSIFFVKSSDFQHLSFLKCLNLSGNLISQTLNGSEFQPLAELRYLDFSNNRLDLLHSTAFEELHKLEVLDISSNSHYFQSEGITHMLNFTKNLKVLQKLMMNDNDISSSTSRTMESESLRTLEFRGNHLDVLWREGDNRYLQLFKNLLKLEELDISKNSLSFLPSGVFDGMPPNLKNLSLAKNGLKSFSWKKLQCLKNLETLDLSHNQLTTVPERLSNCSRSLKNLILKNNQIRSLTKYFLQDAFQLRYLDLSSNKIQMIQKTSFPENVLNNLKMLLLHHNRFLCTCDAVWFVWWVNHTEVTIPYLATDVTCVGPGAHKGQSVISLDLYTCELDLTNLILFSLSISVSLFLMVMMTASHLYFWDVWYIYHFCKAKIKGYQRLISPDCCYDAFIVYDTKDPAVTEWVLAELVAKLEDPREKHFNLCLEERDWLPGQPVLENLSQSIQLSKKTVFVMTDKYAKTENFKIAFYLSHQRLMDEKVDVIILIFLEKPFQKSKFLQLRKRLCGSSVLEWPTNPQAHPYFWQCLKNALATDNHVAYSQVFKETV
protocolSummary: HEK-TLR7 NF-κB-luciferase reporter, R848 stimulation
Type: cell-based
conditionSet: ASO 100 nM; relative to R848 only, given as fraction

Prompt: Quick check: TLR7 100 nM (averaged NF-κB-Luciferase level relative to R848 condition) on human TLR7 (Homo sapiens, UniProt Q9NYK1), item AACACTTCGTGGGGTC (antisense; LNA-modified, pattern not given here) [HPRT LNA-666 V1] ?
Completion: 0.899

Prompt: human TLR7 (Homo sapiens, UniProt Q9NYK1) / TLR7 100 nM (averaged NF-κB-Luciferase level relative to R848 condition) / CCAAGATCAGCAGTCT (antisense; LNA-modified, pattern not given here) [CTNN2B-2341 LNA KL] : value?
Completion: 0.882

Prompt: For human TLR7 (Homo sapiens, UniProt Q9NYK1), provide TLR7 100 nM (averaged NF-κB-Luciferase level relative to R848 condition) of ACGTTCAGTCCTGTCC (antisense; LNA-modified, pattern not given here) [HPRT LNA-294 V1] please.
Completion: 0.601

Prompt: Provide value of TLR7 100 nM (averaged NF-κB-Luciferase level relative to R848 condition) for this record tested with human TLR7 (Homo sapiens, UniProt Q9NYK1): TTTTGGCTGGGATCAA (antisense; LNA-modified, pattern not given here) [CAMSAP1-4697 LNA KL]
Completion: 0.564

Prompt: Give human TLR7 (Homo sapiens, UniProt Q9NYK1) TLR7 100 nM (averaged NF-κB-Luciferase level relative to R848 condition) for TGGTCCACAACCCCTT (antisense; LNA-modified, pattern not given here) [MB21D1-697 LNA V1]
Completion: 1.008

Prompt: Enter reported TLR7 100 nM (averaged NF-κB-Luciferase level relative to R848 condition) observed with human TLR7 (Homo sapiens, UniProt Q9NYK1) for GGTCATTACAATAGCT (antisense; LNA-modified, pattern not given here) [HPRT LNA-475 KL]
Completion: 0.580

Prompt: Return TLR7 100 nM (averaged NF-κB-Luciferase level relative to R848 condition) measured with human TLR7 (Homo sapiens, UniProt Q9NYK1) given this sequence: GGAGGTCTTGGCTTCG (antisense; LNA-modified, pattern not given here) [MB21D1-526 LNA V1]
Completion: 0.503

###

testSystem: TLR8 (Homo sapiens, UniProt Q9NR97)
protocolSummary: HEK-TLR8 NF-κB-luciferase reporter, R848 or Motolimod stimulation (potentiation or inhibition)
Format: cell-based
Set-up: expressed in transfected cells; host or cells: 293XLhTLR8 (HEK293)
conditionSet: MOE-modified ASO at 100 nM; averaged NF-κB-Luciferase relative to R848 condition (fold increase)
measuredQuantity: TLR8 100 nM

Prompt: Entry TTCTGCAGCTTCCTTGTCCT (antisense; 2'-MOE modified, pattern not given here) [CTNN2B-2136 MOE] : reported TLR8 100 nM = ?
Completion: 2.049

Prompt: Form field: reported TLR8 100 nM of GCGTATTATAGCCGATTAAC (antisense; 2'-MOE modified, pattern not given here) [NC1 2′MOE]
Completion: 1.883

Prompt: I'd like to know its TLR8 100 nM. The sequence in question is TGGGTTACGGCTCAGTATGG (antisense; 2'-MOE modified, pattern not given here) [CAMSAP1-4295 MOE]
Completion: 1.610

Prompt: Fill blank: measured TLR8 100 nM of the sequence TAGGCACTTTGCCTCCTTCT (antisense; 2'-MOE modified, pattern not given here) [EGFR-2859 MOE] is ____.
Completion: 0.773

Prompt: May I ask what TLR8 100 nM has been recorded for TGTCTTCATCGGCCCTGCCT (antisense; 2'-MOE modified, pattern not given here) [CAMSAP1-2112 MOE] ?
Completion: 1.331

Prompt: // query TLR8 100 nM value for entry ACCCACTTGGCAGACCATCA (antisense; 2'-MOE modified, pattern not given here) [CTNN2B-1575 MOE]
Completion: 2.822

Prompt: Could you tell me which TLR8 100 nM is on file for GGCATCCACCACGTCGTCCA (antisense; 2'-MOE modified, pattern not given here) [EGFR-3266 MOE] ?
Completion: 1.619

Prompt: Consider the sequence GGTTTTGGCTGGGATCAAGT (antisense; 2'-MOE modified, pattern not given here) [CAMSAP1-4697 MOE] and give its measured TLR8 100 nM.
Completion: 5.496

Prompt: Please give the measured TLR8 100 nM for this sequence: GGAGATTTCAGAGCAGCTTC (antisense; 2'-MOE modified, pattern not given here) [EGFR-4885 MOE]
Completion: 3.122

Prompt: Look up TLR8 100 nM for this sequence: CAACACTTCGTGGGGTCCTT (antisense; 2'-MOE modified, pattern not given here) [HPRT-665 MOE]
Completion: 1.320

Prompt: Name the recorded TLR8 100 nM for ATGTGATGGCCTCCCATCTC (antisense; 2'-MOE modified, pattern not given here) [HPRT-333 MOE] .
Completion: 0.939

Prompt: What value of TLR8 100 nM has been recorded for this entry: CTTACTTTCCGAGGTGTCCA (antisense; 2'-MOE modified, pattern not given here) [CAMSAP1-1739 MOE]
Completion: 3.892

Prompt: Query (sequence): TGTGATGGCCTCCCATCTCC (antisense; 2'-MOE modified, pattern not given here) [HPRT-332 MOE] ; field requested: TLR8 100 nM
Completion: 0.940

Prompt: Which TLR8 100 nM is listed for GTCCACATCCTGTGGCTCGT (antisense; 2'-MOE modified, pattern not given here) [CAMSAP1-2906 MOE] ?
Completion: 0.919

Prompt: Data request, read-out TLR8 100 nM, for AGATCTGGCAGCCCATCAAC (antisense; 2'-MOE modified, pattern not given here) [CTNN2B-2516 MOE]
Completion: 3.069

Prompt: Field request: TLR8 100 nM | item: GCGTGTCTGGAAGCTTCCTT (antisense; 2'-MOE modified, pattern not given here) [CTNN2B-809 MOE]
Completion: 1.179

Prompt: Requested read-out: TLR8 100 nM. Entry: TTGGCTCGGCTTGCCTACTT (antisense; 2'-MOE modified, pattern not given here) [CAMSAP1-5594 MOE]
Completion: 1.096

Prompt: Bench note: what TLR8 100 nM did ACAGTGTTGAGATACTCGGG (antisense; 2'-MOE modified, pattern not given here) [EGFR-3652 MOE] show?
Completion: 5.681

Prompt: Which TLR8 100 nM value belongs to ATGCCATCCACTTGATAGGC (antisense; 2'-MOE modified, pattern not given here) [EGFR-2874 MOE] ?
Completion: 2.028

Prompt: Query: TLR8 100 nM; subject: CAAGGCCCTTCGCACTTCTT (antisense; 2'-MOE modified, pattern not given here) [EGFR-1225 MOE]
Completion: 1.115

Prompt: For GGGTATCGAAAGAGTCTGGA (antisense; 2'-MOE modified, pattern not given here) [EGFR-3908 MOE] , what is its reported TLR8 100 nM?
Completion: 3.138

Prompt: Suppose we examine the sequence GTCCAAGATCAGCAGTCTCA (antisense; 2'-MOE modified, pattern not given here) [CTNN2B-2341 MOE] ; what TLR8 100 nM value has been reported?
Completion: 3.021

Prompt: So what's the measured TLR8 100 nM for this one? AACACTTCGTGGGGTCCTTT (antisense; 2'-MOE modified, pattern not given here) [HPRT-664 MOE]
Completion: 2.725

Prompt: Which TLR8 100 nM is reported for this sequence? CGGCATCCACCACGTCGTCC (antisense; 2'-MOE modified, pattern not given here) [EGFR-3267 MOE]
Completion: 1.249

Prompt: For ATGTCCCGCCACTGGATGCT (antisense; 2'-MOE modified, pattern not given here) [EGFR-727 MOE] , what is its reported TLR8 100 nM?
Completion: 2.029

Prompt: Field request: TLR8 100 nM | item: CCAACACTTCGTGGGGTCCT (antisense; 2'-MOE modified, pattern not given here) [HPRT-666 MOE]
Completion: 1.223

Prompt: Record request: TLR8 100 nM value, item AATCCGCCCAAAGGGAACTG (antisense; 2'-MOE modified, pattern not given here) [HPRT-1027 MOE]
Completion: 2.685

Prompt: Record request: TLR8 100 nM value, item TCCAACACTTCGTGGGGTCC (antisense; 2'-MOE modified, pattern not given here) [HPRT-667 MOE]
Completion: 1.142

Prompt: Which TLR8 100 nM reading was recorded for the sequence GTCTTGGCTTCGTGGAGCAG (antisense; 2'-MOE modified, pattern not given here) [MB21D1-520 MOE] ?
Completion: 2.383
